# test_summary: Gelation capability of gelators, stable-to-inversion of container method (minimum gelation concentration, gel stability and clarity)
# Format: physicochemical
# Set-up: key: —: no gel formed
# details: pH 7 (0.08 M MOPSO buffer)
endpoint: minimum gelation concentration (MGC)

smiles_structure=O=C(CCCC[C@@H]1SC[C@@H]2NC(=O)N[C@@H]21)N[C@@H](Cc1c[nH]c2ccccc12)C(=O)O result=—
smiles_structure=CSCC[C@H](NC(=O)CCCC[C@@H]1SC[C@@H]2NC(=O)N[C@@H]21)C(=O)O result=—
smiles_structure=O=C(CCCC[C@@H]1SC[C@@H]2NC(=O)N[C@@H]21)N[C@@H](Cc1ccc(O)cc1)C(=O)O result=—

# credit: patent US20090011025A1
